Reported IC50 on Leucine-rich repeat serine/threonine-protein kinase 2 (Homo sapiens) for assorted compounds, compiled from publications.

Worked cases, answers included:
molecule	IC50
Cn1ccc(Nc2cc(-c3ccccc3)c3c(C#N)c[nH]c3n2)n1	48 nM
CN1CCN(c2cncc(-c3cnc4[nH]ccc4c3)n2)CC1	< 500 nM
Cc1cc(-c2ccnc3[nH]cc(C#N)c23)ccc1CN1CCOCC1	620 nM
[2H]C([2H])([2H])c1c2c(nn1C1CCOCC1)OC([2H])([2H])C([2H])([2H])C([2H])([2H])n1nc(Cl)c3cnc(nc31)N2	15 nM
CCc1nn(C2CCNCC2)cc1Nc1ncc(Cl)c(NCCCN2CCCCC2=O)n1	> 600 nM
CNc1cc(Nc2ccc(S(C)(=O)=O)cc2OC)nc2[nH]ccc12	101 to 300 nM
CCCNc1cc(Nc2ccc(S(=O)(=O)N3CCC(N4CCOCC4)CC3)cc2OC)nc2[nH]cc(C#N)c12	< 100 nM

Fill blank: measured IC50 of the compound Cc1cc(-c2cc(Nc3ccn(C)n3)nc3[nH]cc(C#N)c23)ccc1CN1CCOCC1 is ____. 4 nM

---

Reported pIC50 on Leucine-rich repeat serine/threonine-protein kinase 2 (Homo sapiens) for assorted compounds, compiled from publications.
pIC50: −log10 of the molar value.

Worked cases, answers included:
compound	pIC50
CCNc1cc(Nc2ccc(S(=O)(=O)N3CCOCC3)cc2OC)nc2[nH]cc(Cl)c12	6.52 to 7.00
Cc1nn(C(C)(C)C(N)=O)cc1Nc1ncc(C(F)(F)F)c(NCCCN2CCCCC2=O)n1	7.00 to 9.00
COc1c(F)cccc1-c1ccc2nc(NC(=O)[C@@H]3C[C@@H]3F)cn2c1	7.00 to 8.00

Value wanted: pIC50 (Leucine-rich repeat serine/threonine-protein kinase 2 (Homo sapiens)) of entry CCc1cc(N2CCN(C)CC2)ccc1Nc1ncc(Br)c(NCCCNC(=O)C2CCC2)n1 6.52 to 7.00

Now this one: COc1cc(S(=O)(=O)N2CCOCC2)ccc1Nc1cc(NC2CC2)c2c(C#N)c[nH]c2n1 > 7.00

Now this one: Cc1c(F)cccc1-c1ccc2nc(NC(=O)[C@H]3C[C@@H]3F)cn2c1 (stereo in doubt) 6.00 to 7.00

Now this one: CC1(C)CCN(CCCNc2nc(Nc3cnn(C4CCN(C5CC5)CC4)c3)ncc2Br)C1=O 6.22 to 6.52

Now this one: Cc1n[nH]c2ncc(NC3CCCN(Cc4ccc(Cl)c(Cl)c4)C3)cc12 (centres unmarked) < 6.30

---

pIC50: −log10 of the molar value.
Reported pIC50 on Leucine-rich repeat serine/threonine-protein kinase 2 (Homo sapiens, UniProt Q5S007) for assorted compounds, compiled from publications.

compound	result
Cc1cccc(-c2ccc3nc(NC(=O)[C@@H]4C[C@@H]4F)cn3c2)c1C	6.00 to 7.00
Cc1cc(C2CCN(C)CC2)ccc1Nc1ncc(C(F)(F)F)c(NCCCN(C)C(=O)C2CCC2)n1	7.00 to 9.00
O=C1OCCCN1CCCNc1nc(Nc2ccc(N3CCNCC3)cc2C2CC2)ncc1C(F)(F)F	7.00 to 9.00
[2H]C([2H])([2H])c1c2c(nn1[C@H]1CCO[C@@H](C)C1)OCCCn1nc(Cl)c3cnc(nc31)N2 (single isomer, unassigned)	7.72
CCCNc1cc(Nc2ccc(S(=O)(=O)N3CCOCC3)cc2OC)nc2[nH]cc(C(F)(F)F)c12	6.00 to 6.52

Fill blank: measured pIC50 of the compound CNc1cc(Nc2ccc(C(=O)N3CC[C@@H](N4CCOCC4)C3)c3c2OCC3)nc2[nH]cc(C(F)(F)F)c12 is ____. > 7.00

Now this one: N#Cc1c[nH]c2nc(Nc3ccc(C(=O)N4CCOCC4)c4c3OCCO4)cc(NC3CC3)c12 > 7.00

Now this one: CCN(c1ncc2c(n1)N(C)c1ccccc1C(=O)N2C)c1ccc(C(=O)N2CCC(N3CCN(C)CC3)CC2)cc1OC 5.52

Now this one: Cc1n[nH]c2ncc(-c3cnn(C)c3)cc12 < 6.30
